Below, each of the compounds is paired with its reported TGI value.
test system: HOP-92 NSCLC; test: NCI tumour cell line growth inhibition, 48 h

# count of solved cases: 5
compound | TGI
CS(=O)(=O)c1nccc(-c2c(-c3cccc(OCc4ccccc4)c3)nc3sccn23)n1 | > 100 µM
COc1ccc2c3c(ccc2c1)NC(C(=O)O)CC3 (stereo not given) | > 100 µM
CCOC(=O)CCC(NC(=O)C(CCC(=O)OCC)NC(=O)C(Cc1ccc([N+](=O)[O-])cc1)NC(C)=O)C(=O)NNC(=O)OC(C)(C)C (stereo not given) | > 100 µM
Cc1ccccc1NC(=O)N/C(N)=N/c1nc(C)c(C)s1 | > 100 µM
O=C1CCN=C(NC(=O)C(F)(F)F)N1CCc1c[nH]c2ccccc12 | > 100 µM

For the compound O=P1(N(CCCl)CCCl)Oc2c(Cl)cc(Cl)c(Cl)c2Cc2c(Cl)c(Cl)cc(Cl)c2O1 , what TGI is on record?
66.5 µM

Another: N#Cc1c(N)n(C2OC(CO)C(O)C2O)c2ncnc(N)c12 (stereo not given)
> 100 µM

Another: Clc1cc2nc[nH]c2cc1Cl
> 100 µM

Another: O=c1[nH]c(=S)n(-c2cccc3ccccc23)c(O)c1/C=C1\C=Nc2ccccc21
4.85 µM

Another: COc1cc(/C=C/C(=O)c2ccc(F)cc2)ccc1OCCCCOc1cc2c(cc1OC)C(=O)N1CCCC1C=N2 (stereo not given)
0.673 µM
